Entries and their measured LD50 follow.
- Experiment summary: in vivo
- Conditions: mouse, ip
The answer is to be given in mg/kg; state only the numeric part.

Consider the reported LD50 for these molecules:
CC(=O)OCC1OC(OP(=O)(O)N(CCCl)CCCl)C(Br)CC1OC(C)=O (stereo not shown) [Compound 11] :: 323
CC(=O)OCC1OC(OP(=O)(NCCCl)NCCCl)C(Br)CC1OC(C)=O (single isomer, unassigned) [Compound 7] :: 316
CC(=O)OCC1OC(OP(=O)(O)N(CCCl)CCCl)CC(Br)C1OC(C)=O (stereo not shown) [Compound 9] :: 307

Name the reported LD50 value associated with the molecule COc1cc(C2c3cc4c(cc3C(C3CC(Br)C(OC(C)=O)C(COC(C)=O)O3)C3COC(=O)C23)OCO4)cc(OC)c1O (stereo not shown) [Compound 13]
299

Please answer likewise for COc1cc(C2c3cc4c(cc3C(C3OC(COC(C)=O)C(OC(C)=O)CC3Br)C3COC(=O)C23)OCO4)cc(OC)c1O (stereo not shown) [Compound 14]
300

Please answer likewise for CC(=O)OCC1OC(OP(=O)(NCCCl)NCCCl)CC(Br)C1OC(C)=O (single isomer, unassigned) [Compound 5]
301

Please answer likewise for CC(=O)OCC1OC(Br)C(Br)CC1OC(C)=O (single isomer, unassigned) [Compound 3]
359

---

Entries and their measured weight start follow.
- Test system: anaplastic thyroid carcinoma TA-K cells
- Experiment summary: Mouse transplant tumor, human anaplastic thyroid carcinoma TA-K
- Conditions: human anaplastic thyroid carcinoma TA-K; 125 mg/kg once a day for 7 days; animal weight at start

CC(=O)OCC1OC(OP(=O)(O)N(CCCl)CCCl)CC(Br)C1OC(C)=O (centres unmarked) :: 18.3
CC(=O)OCC1OC(OP(=O)(NCCCl)NCCCl)CC(Br)C1OC(C)=O (single isomer, unassigned) :: 18.3
CC(=O)OCC1OC(OP(=O)(O)N(CCCl)CCCl)C(Br)CC1OC(C)=O (centres unmarked) :: 18.2
CC(=O)OCC1OC(OP(=O)(NCCCl)NCCCl)C(Br)CC1OC(C)=O (single isomer, unassigned) :: 18.3

Name the reported weight start value associated with the compound CC(=O)OCC1OC(Br)C(Br)CC1OC(C)=O (single isomer, unassigned)
18.2

---

Entries and their measured LD50 follow.
- Tested on: mouse
- Experiment summary: Acute toxicity (LD50), mouse ip injection
- Conditions: mouse ip after injection
The answer is to be given in mg/kg; state only the numeric part.

Consider the reported LD50 for these compounds:
CC(=O)OCC1OC(OP(=O)(NCCCl)NCCCl)CC(Br)C1OC(C)=O (single isomer, unassigned) :: 307.1
CC(=O)OCC1OC(Br)C(Br)CC1OC(C)=O (single isomer, unassigned) :: 356.2
CC(=O)OCC1OC(OP(=O)(O)N(CCCl)CCCl)C(Br)CC1OC(C)=O (centres unmarked) :: 306.4
CC(=O)OCC1OC(OP(=O)(NCCCl)NCCCl)C(Br)CC1OC(C)=O (single isomer, unassigned) :: 301.4

Would you kindly look at the next entry?
Name the reported LD50 value associated with the compound CC(=O)OCC1OC(OP(=O)(O)N(CCCl)CCCl)CC(Br)C1OC(C)=O (centres unmarked)
315.6

---

- System: MGC human stomach cancer cells
- Experiment summary: Mouse transplant tumor, MGC human stomach cancer;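 note: control group received saline vehicle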
- Conditions: 125 mg/kg once a day for 7 days, animal weight at end
Measurement kind: weight end
Keep the answer to the number alone.

CC(=O)OCC1OC(OP(=O)(NCCCl)NCCCl)CC(Br)C1OC(C)=O (single isomer, unassigned) :: 18.6
CC(=O)OCC1OC(OP(=O)(O)N(CCCl)CCCl)C(Br)CC1OC(C)=O (centres unmarked) :: 18.4
CC(=O)OCC1OC(Br)C(Br)CC1OC(C)=O (single isomer, unassigned) :: 18.3
CC(=O)OCC1OC(OP(=O)(O)N(CCCl)CCCl)CC(Br)C1OC(C)=O (centres unmarked) :: 18.3

Would you kindly look at the next entry?
Name the reported weight end value associated with the molecule CC(=O)OCC1OC(OP(=O)(NCCCl)NCCCl)C(Br)CC1OC(C)=O (single isomer, unassigned)
18.4

---

- Experiment summary: in vivo
- Conditions: mouse, po
TRUE if LD50 is below 2000 mg/kg. FALSE if not; exact matches included in FALSE.

Worked cases, answers included:
COc1cc(C2c3cc4c(cc3C(C3CC(Br)C(OC(C)=O)C(COC(C)=O)O3)C3COC(=O)C23)OCO4)cc(OC)c1O (stereo not shown) [Compound 13] :: TRUE
CC(=O)OCC1OC(OP(=O)(O)N(CCCl)CCCl)CC(Br)C1OC(C)=O (stereo not shown) [Compound 9] :: FALSE
CC(=O)OCC1OC(Br)C(Br)CC1OC(C)=O (single isomer, unassigned) [Compound 3] :: FALSE
CC(=O)OCC1OC(OP(=O)(NCCCl)NCCCl)CC(Br)C1OC(C)=O (single isomer, unassigned) [Compound 5] :: FALSE

Turning now to a further record.
Does the reported LD50 of CC(=O)OCC1OC(OP(=O)(NCCCl)NCCCl)C(Br)CC1OC(C)=O (single isomer, unassigned) [Compound 7] stay below 2000 mg/kg?
FALSE

---

- Test system: 05-732 human bone tumor
- Experiment summary: Mouse transplant tumor, 05-732 human osteosarcoma
- Conditions: 05-732 human osteosarcoma; 125 mg/kg once a day for 7 days; animal weight at start
Entries and their measured weight start follow.
Keep the answer to the number alone.

CC(=O)OCC1OC(OP(=O)(NCCCl)NCCCl)C(Br)CC1OC(C)=O (single isomer, unassigned) [Compound 7] :: 18.3
CC(=O)OCC1OC(OP(=O)(O)N(CCCl)CCCl)C(Br)CC1OC(C)=O (centres unmarked) [Compound 12] :: 18.2
CC(=O)OCC1OC(OP(=O)(O)N(CCCl)CCCl)CC(Br)C1OC(C)=O (centres unmarked) [Compound 10] :: 18.3
CC(=O)OCC1OC(OP(=O)(NCCCl)NCCCl)CC(Br)C1OC(C)=O (single isomer, unassigned) [Compound 5] :: 18.3

Would you kindly look at the next entry?
Name the reported weight start value associated with the compound CC(=O)OCC1OC(Br)C(Br)CC1OC(C)=O (single isomer, unassigned) [Compound 3]
18.2

---

- Test system: MX-1 human breast cancer cells
- Experiment summary: Mouse transplant tumor, MX-1 human breast cancer;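 note: mice given saline served as the control group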
- Conditions: 125 mg/kg once a day for 7 days, animal weight at end
Measurement kind: weight end
Keep the answer to the number alone.

Consider the reported weight end for these molecules:
CC(=O)OCC1OC(Br)C(Br)CC1OC(C)=O (single isomer, unassigned) :: 18.3
CC(=O)OCC1OC(OP(=O)(NCCCl)NCCCl)C(Br)CC1OC(C)=O (single isomer, unassigned) :: 18.4
CC(=O)OCC1OC(OP(=O)(O)N(CCCl)CCCl)C(Br)CC1OC(C)=O (centres unmarked) :: 18.4
CC(=O)OCC1OC(OP(=O)(O)N(CCCl)CCCl)CC(Br)C1OC(C)=O (centres unmarked) :: 18.3

Would you kindly look at the next entry?
Tell me reported weight end for CC(=O)OCC1OC(OP(=O)(NCCCl)NCCCl)CC(Br)C1OC(C)=O (single isomer, unassigned) , tested with MX-1 human breast cancer cells.
18.6

---

Entries and their measured weight end follow.
- Tested on: anaplastic thyroid carcinoma TA-K cells
- Experiment summary: Mouse transplant tumor, human anaplastic thyroid carcinoma TA-K;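 note: Tumor-bearing mice compared against a saline-treated control group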
- Conditions: human anaplastic thyroid carcinoma TA-K; 125 mg/kg once a day for 7 days; animal weight at end
Keep the answer to the number alone.

Consider the reported weight end for these compounds:
CC(=O)OCC1OC(OP(=O)(NCCCl)NCCCl)C(Br)CC1OC(C)=O (single isomer, unassigned) :: 18.4
CC(=O)OCC1OC(OP(=O)(O)N(CCCl)CCCl)C(Br)CC1OC(C)=O (centres unmarked) :: 18.4

Name the reported weight end value associated with the compound CC(=O)OCC1OC(OP(=O)(O)N(CCCl)CCCl)CC(Br)C1OC(C)=O (centres unmarked)
18.3

Please answer likewise for CC(=O)OCC1OC(Br)C(Br)CC1OC(C)=O (single isomer, unassigned)
18.3

Please answer likewise for CC(=O)OCC1OC(OP(=O)(NCCCl)NCCCl)CC(Br)C1OC(C)=O (single isomer, unassigned)
18.6

---

Entries and their measured Inhibition of tumor growth follow.
- Tested on: AsPc human pancreatic cancer cells
- Experiment summary: Mouse transplant tumor, AsPc human pancreatic cancer;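 note: Saline-treated mice served as the control group, with a CTX-treated group as positive reference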
- Conditions: 125 mg/kg once a day for 7 days
Keep the answer to the number alone.

Consider the reported Inhibition of tumor growth for these compounds:
CC(=O)OCC1OC(Br)C(Br)CC1OC(C)=O (single isomer, unassigned) :: 77.3
CC(=O)OCC1OC(OP(=O)(NCCCl)NCCCl)C(Br)CC1OC(C)=O (single isomer, unassigned) :: 73.6
CC(=O)OCC1OC(OP(=O)(NCCCl)NCCCl)CC(Br)C1OC(C)=O (single isomer, unassigned) :: 81.5
CC(=O)OCC1OC(OP(=O)(O)N(CCCl)CCCl)C(Br)CC1OC(C)=O (stereo not drawn) :: 77.5
CC(=O)OCC1OC(OP(=O)(O)N(CCCl)CCCl)CC(Br)C1OC(C)=O (stereo not drawn) :: 76.9

Would you kindly look at the next entry?
Name the reported Inhibition of tumor growth value associated with the compound COc1cc(C2c3cc4c(cc3C(C3OC(COC(C)=O)C(OC(C)=O)CC3Br)C3COC(=O)C23)OCO4)cc(OC)c1O (stereo not drawn)
75.2

meta.source: patent US9296774B2
